System tested: c-Met (cytoplasmic domain) (Homo sapiens)
Construct: 10 ng/mL c-Met (cytoplasmic domain, Invitrogen Corporation #PV3143); purchased Invitrogen Corporation PV3143
Experiment: c-Met Kinase Assay (same methods as for ALK, with modifications)
Assay type: biochemical
Reported conditions: 1 μM ATP (Km level), 10 ng/mL c-Met; read-out: cMet Activity (c-Met kinase inhibition, IC50 class)
Parameter IC50: see the listing below.

Consider the following illustrative entries.
Compound | IC50
COc1cc2c(cc1Nc1ncc(Cl)c(N[C@H]3[C@@H](C(N)=O)[C@@H]4C=C[C@H]3C4)n1)C(C)(C)CCC(=O)N2 [Example 1312] | > 10000 nM
CNC(=O)CN1CCc2ccc(Nc3ncc(Cl)c(Nc4c(Cl)cccc4C(=O)NC)n3)cc2CC1 [Example 1373] | < 100 nM
CNC(=O)c1cc(N(C)C)ccc1Nc1nc(Nc2ccc3c(c2)CCN(CCOC)CC3)ncc1Cl [Example 1413] | 100 to 1000 nM
COCCN1CCc2ccc(Nc3ncc(Cl)c(Nc4c(F)cccc4C(=O)NCC#N)n3)cc2CC1 [Example 1079] | < 100 nM

Summary for this compound, CNC(=O)c1ccccc1Nc1nc(Nc2c(OC)ccc3c2CCC(NCC(F)F)CC3)ncc1Cl (stereo not drawn) [Example 1078] : IC50 is > 10000 nM

Query NC(=O)[C@@H]1[C@H](Nc2nc(Nc3ccc4c(c3)CCC(O)CC4)ncc2Cl)[C@H]2C=C[C@@H]1C2 (stereo partly drawn) [Example 1017] yields IC50 of 100 to 1000 nM

----------
Here the recorded IC50 is given for each entry.
System tested: baculovirus-expressed ALK (Homo sapiens, UniProt Q9UM73)
Construct: host or cells: baculovirus expression system
Sequence (Q9UM73 19-1620): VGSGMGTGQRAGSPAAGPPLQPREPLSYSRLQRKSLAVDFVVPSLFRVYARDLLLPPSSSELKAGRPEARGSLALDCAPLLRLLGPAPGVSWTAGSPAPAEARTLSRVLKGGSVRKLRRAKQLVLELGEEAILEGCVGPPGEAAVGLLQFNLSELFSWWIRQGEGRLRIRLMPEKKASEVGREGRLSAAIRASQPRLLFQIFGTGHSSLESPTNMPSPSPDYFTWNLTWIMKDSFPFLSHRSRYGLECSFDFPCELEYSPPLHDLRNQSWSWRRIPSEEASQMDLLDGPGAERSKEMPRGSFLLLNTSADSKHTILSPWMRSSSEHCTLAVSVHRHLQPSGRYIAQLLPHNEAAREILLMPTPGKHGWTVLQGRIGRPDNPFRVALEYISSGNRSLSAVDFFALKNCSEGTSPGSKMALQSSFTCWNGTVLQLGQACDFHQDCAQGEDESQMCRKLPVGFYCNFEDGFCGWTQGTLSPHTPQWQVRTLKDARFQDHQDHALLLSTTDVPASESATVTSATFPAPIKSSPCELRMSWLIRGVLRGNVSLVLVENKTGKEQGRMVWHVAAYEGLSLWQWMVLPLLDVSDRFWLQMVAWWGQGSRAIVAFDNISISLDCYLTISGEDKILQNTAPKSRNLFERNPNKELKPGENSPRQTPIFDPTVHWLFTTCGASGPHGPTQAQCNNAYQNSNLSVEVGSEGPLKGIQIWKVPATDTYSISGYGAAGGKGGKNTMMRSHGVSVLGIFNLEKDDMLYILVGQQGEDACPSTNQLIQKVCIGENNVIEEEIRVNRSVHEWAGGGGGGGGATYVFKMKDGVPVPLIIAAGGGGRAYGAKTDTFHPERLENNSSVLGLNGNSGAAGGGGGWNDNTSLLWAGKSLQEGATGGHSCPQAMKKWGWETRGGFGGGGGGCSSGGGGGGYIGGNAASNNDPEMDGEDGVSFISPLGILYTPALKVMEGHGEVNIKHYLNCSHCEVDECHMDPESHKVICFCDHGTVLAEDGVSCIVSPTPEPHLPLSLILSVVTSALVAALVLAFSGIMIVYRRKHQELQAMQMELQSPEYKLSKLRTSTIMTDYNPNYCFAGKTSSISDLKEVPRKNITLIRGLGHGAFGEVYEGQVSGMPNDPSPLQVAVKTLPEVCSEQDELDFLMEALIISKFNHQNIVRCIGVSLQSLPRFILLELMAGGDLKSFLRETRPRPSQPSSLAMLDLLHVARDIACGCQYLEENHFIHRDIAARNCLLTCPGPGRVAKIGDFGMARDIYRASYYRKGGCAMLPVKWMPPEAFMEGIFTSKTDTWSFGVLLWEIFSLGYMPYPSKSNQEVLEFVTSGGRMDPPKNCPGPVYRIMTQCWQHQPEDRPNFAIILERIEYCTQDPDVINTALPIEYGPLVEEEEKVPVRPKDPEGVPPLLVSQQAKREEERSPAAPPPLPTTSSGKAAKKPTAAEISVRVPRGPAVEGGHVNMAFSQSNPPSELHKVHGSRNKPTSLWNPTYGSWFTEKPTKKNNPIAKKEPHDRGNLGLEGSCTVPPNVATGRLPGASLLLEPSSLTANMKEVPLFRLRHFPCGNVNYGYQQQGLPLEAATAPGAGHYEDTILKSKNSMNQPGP
Experiment: ALK Kinase Assay (ELISA-type, time-resolved fluorescence)
Type: biochemical
Reported conditions: ALK kinase inhibition, 1 μM ATP; read-out: ALK Activity

These solved cases illustrate the format of a correct answer.
Input smiles | IC50
CNC(=O)c1scc(C)c1Nc1nc(Nc2ccc3c(c2)NC(=O)CN(C(C)=O)C3)ncc1Cl | 100 to 1000 nM
COc1cc(N2CCOCC2)ccc1Nc1nc(Nc2ccc3c(c2)N(CCN(C)C)CCCC3(C)C)ncc1Cl | < 100 nM

Lab note: next molecule to report on.
Value of measured IC50 for the entry CC1(C)CCCNc2cc(Nc3ncc(Cl)c(N[C@H]4[C@@H](C(N)=O)[C@@H]5C=C[C@H]4C5)n3)ccc21 : < 100 nM

----------
IC50 reference
System tested: c-Met (cytoplasmic domain) (Homo sapiens, UniProt P08581)
Construct: 10 ng/mL c-Met (cytoplasmic domain, Invitrogen Corporation #PV3143); purchased Invitrogen Corporation PV3143
Sequence (P08581 956-1390 limits assumed): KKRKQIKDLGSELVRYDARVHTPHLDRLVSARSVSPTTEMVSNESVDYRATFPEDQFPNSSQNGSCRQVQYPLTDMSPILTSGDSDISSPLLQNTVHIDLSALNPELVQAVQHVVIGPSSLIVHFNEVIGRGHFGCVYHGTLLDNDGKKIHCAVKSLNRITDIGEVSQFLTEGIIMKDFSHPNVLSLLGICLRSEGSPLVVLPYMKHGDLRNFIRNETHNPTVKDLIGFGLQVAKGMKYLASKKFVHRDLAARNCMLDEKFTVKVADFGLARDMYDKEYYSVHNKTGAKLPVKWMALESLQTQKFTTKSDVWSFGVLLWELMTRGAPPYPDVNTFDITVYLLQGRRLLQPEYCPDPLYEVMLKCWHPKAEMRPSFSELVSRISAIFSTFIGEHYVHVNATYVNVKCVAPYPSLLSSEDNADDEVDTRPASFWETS
Experiment: c-Met Kinase Assay (same methods as for ALK, with modifications)
Type: biochemical
Reported conditions: 1 μM ATP (Km level), 10 ng/mL c-Met; read-out: cMet Activity (c-Met kinase inhibition, IC50 class)

Check out these entries, answers already filled in.
Compound | IC50
COCCN1CCc2ccc(Nc3ncc(Cl)c(N[C@H]4CC[C@H](NS(C)(=O)=O)CC4)n3)cc2CC1 | > 10000 nM
COCCN1CCc2ccc(Nc3ncc(Cl)c(Nc4ccccc4C(=O)NCCCN(C)C)n3)cc2CC1 | 100 to 1000 nM
CCCNC(=O)c1ccccc1Nc1nc(Nc2cc3c(cc2OC)CCN(CCOC)CC3)ncc1Cl | > 10000 nM

Record summary for CCN1C(=O)CCCc2cc(Nc3ncc(Cl)c(Nc4ccccc4OC)n3)c(OC)cc21 : reported IC50 = > 10000 nM

Query C#CCNC(=O)c1cccc(F)c1Nc1nc(Nc2ccc3c(c2)NC(=O)CCC3(C)C)ncc1Cl yields IC50 of < 100 nM

----------
Recorded measurements of IC50, one per entry
System tested: c-Met (cytoplasmic domain) (Homo sapiens, UniProt P08581)
Construct: 10 ng/mL c-Met (cytoplasmic domain, Invitrogen Corporation #PV3143); purchased Invitrogen Corporation PV3143
Experiment: c-Met Kinase Assay (same methods as for ALK, with modifications)
Type: biochemical
Reported conditions: c-Met kinase inhibition, 1 μM ATP; read-out: cMet Activity

Please fill in: IC50 reported for CN1C(=O)CCC(C)(C)c2cc(Nc3ncc(Cl)c(N[C@H]4[C@@H](C(N)=O)[C@@H]5C=C[C@H]4C5)n3)ccc21 [Example 1571] = 100 to 1000 nM

Kindly note the recorded IC50 for CC(C)[C@@H](Nc1nc(Nc2ccc3c(c2)CCOC(=O)N3C)ncc1Cl)C(N)=O [Example 1763] , which is 1000 to 10000 nM

Form: compound = CN1CCN(C2CCN(C3CCc4ccc(Nc5ncc(Cl)c(Nc6c(F)cccc6OCC#N)n5)cc4CC3)CC2)CC1 (stereo not drawn) [Example 1483] ; IC50 = < 100 nM

Input CNC(=O)c1ccccc1Nc1nc(Nc2cc3c(cc2OC)N(C)C(=O)OCC3)ncc1C(F)(F)F [Example 1513] . Output IC50: 100 to 1000 nM

Just so you know, measured IC50 for CCN([C@@H]1CCCC[C@H]1Nc1nc(Nc2cc3c(cc2OC)CCN(CCOC)CC3)ncc1Cl)S(C)(=O)=O [Example 1677] came out at > 10000 nM

IC50 recorded for this compound, CCN1C(=O)CCCc2cc(Nc3ncc(Cl)c(N[C@@H]4CCCC[C@H]4N(C)S(C)(=O)=O)n3)c(OC)cc21 [Example 1678] , is 1000 to 10000 nM

----------
System tested: baculovirus-expressed ALK (Homo sapiens, UniProt Q9UM73)
Construct: host or cells: baculovirus expression system
Experiment: ALK Kinase Assay (ELISA-type, time-resolved fluorescence)
Format: biochemical
Reported conditions: ALK kinase inhibition, 1 μM ATP; read-out: ALK Activity
Description: Briefly, each 96-well plate was coated with 100 μL/well of 10 μg/mL substrate (phospholipase C-γ) in Tris-buffered saline (TBS). […] The reaction was initiated by adding enzyme (30 ng/ml ALK) and was allowed to proceed at 37° C. for 15 minutes. Detection of the phosphorylated product was performed by adding 100 μl/well of Eu-N1 labeled PT66 antibody (Perkin Elmer # AD0041). Data analysis was performed using ActivityBase (IDBS, Guilford, UK). […]
pIC50: −log10 of the molar value.
Recorded endpoint: pIC50

# count of solved cases: 6
Molecule | Measured value
CCN1C(=O)C(NC(=O)COC)CC(C)(C)c2ccc(Nc3ncc(Cl)c(Nc4c(F)cccc4C(=O)NC)n3)cc21 (stereo not shown) | 6.00 to 7.00
COc1cc2c(cc1Nc1ncc(Cl)c(Nc3ccccc3S(=O)(=O)N(C)C)n1)CCN(CCO)CC2 | > 7.00
CNC(=O)c1ccccc1Nc1nc(Nc2ccc3c(c2)NC(=O)CN(C)C3)ncc1Cl | 5.00 to 6.00
CCN1CC(=O)Nc2cc(Nc3ncc(Cl)c(Nc4ccccc4S(=O)(=O)N(C)C)n3)c(OC)cc2C1 | > 7.00
C#CCNC(=O)c1cccc(F)c1Nc1nc(Nc2ccc3c(c2)N(CC)C(=O)C(NC(=O)CN(C)C)CC3)ncc1Cl (stereo not shown) | 6.00 to 7.00
CCN1C(=O)CCCc2c1ccc(Nc1ncc(Cl)c(N[C@@H]3CCCC[C@H]3N(C)S(C)(=O)=O)n1)c2OC | 6.00 to 7.00

// returns pIC50 for CCN1CCCOc2cc(Nc3ncc(Cl)c(N[C@@H]4CCCC[C@H]4NS(C)(=O)=O)n3)ccc21 with baculovirus-expressed ALK (Homo sapiens, UniProt Q9UM73); value = > 7.00

----------
System tested: baculovirus-expressed ALK (Homo sapiens)
Construct: host or cells: baculovirus expression system
Experiment: ALK Kinase Assay (ELISA-type, time-resolved fluorescence)
Assay type: biochemical
Reported conditions: 1 μM ATP (Km level); read-out: ALK Activity (ALK Kinase Inhibition, IC50)
Recorded endpoint: IC50

Compound | System tested | Measured value
COc1ccc(Nc2ncc(Cl)c(Nc3ccccc3S(=O)(=O)C(C)C)n2)c2c1CCCC(N1CCOCC1)C2 (centres unmarked) | baculovirus-expressed ALK (Homo sapiens) | 100 to 1000 nM

Response field IC50 (baculovirus-expressed ALK (Homo sapiens)) for item COc1c(Nc2ncc(Cl)c(N[C@@H]3CCCC[C@H]3NS(C)(=O)=O)n2)ccc2c1CCC(NCCO)CC2 (single isomer, unassigned) [Example 699] : < 100 nM

Recorded IC50 for CC1(C)CCC(=O)Nc2ccc(Nc3ncc(Cl)c(Nc4cccc(-c5cccnc5)c4)n3)cc21 on baculovirus-expressed ALK (Homo sapiens) was 100 to 1000 nM

Considering Cn1ccnc1-c1ccccc1Nc1nc(Nc2ccc3c(c2)CCCC(=O)N3)ncc1Cl , its IC50 with baculovirus-expressed ALK (Homo sapiens) was recorded as < 100 nM

Case CNC(=O)c1ccccc1Nc1nc(Nc2ccc3c(c2)CN(CCO)CCS3)ncc1Cl , baculovirus-expressed ALK (Homo sapiens), IC50 recorded as < 100 nM

# value of IC50, baculovirus-expressed ALK (Homo sapiens), item COc1cc2c(cc1Nc1ncc(C(F)(F)F)c(Nc3ccccc3S(=O)(=O)C(C)C)n1)CCN(CC(=O)N(C)C)CC2 = 1000 to 10000 nM

Reported IC50 (baculovirus-expressed ALK (Homo sapiens)) for entry CCN1CCN(CC)c2cc(Nc3ncc(Cl)c(Nc4ccc(N5CCOCC5)cc4OC)n3)ccc2C1 is < 100 nM

Hey, baculovirus-expressed ALK (Homo sapiens) data for COCCN1CCc2ccc(Nc3ncc(Cl)c(Nc4cc(C)n[nH]4)n3)cc2CC1 : IC50 came out at 100 to 1000 nM

For COc1c(Nc2ncc(Cl)c(Nc3ccccc3S(=O)(=O)N3CCCC3)n2)ccc2c1CCCC(NCCO)C2 (centres unmarked) on baculovirus-expressed ALK (Homo sapiens), measured IC50 was < 100 nM

Param item: CN1C(=O)CCCc2cc(Nc3ncc(Cl)c(Nc4ccccc4-c4nc(C(F)(F)F)c[nH]4)n3)ccc21 ; param system: baculovirus-expressed ALK (Homo sapiens); output IC50: 100 to 1000 nM

Measured on baculovirus-expressed ALK (Homo sapiens), CC1(C)CCC(=O)Nc2ccc(Nc3ncc(Cl)c(Nc4ccccc4-c4cnccn4)n3)cc21 has a documented IC50 of < 100 nM
